This collection of values is drawn from paper PMC5472279.

Listing: Kd of selected binders
# TGT: T1, GST-GRASP55 FL (mGRASP55 Full-length, aa 2-451) (mouse, UniProt Q99JX3 2-451)
# T1 construct: GRASP55, mouse, aa 2-451, called full-length (FL); Forward primers with and without a thrombin cleavage site were used; also called full-length GRASP55 protein; source: E. coli BL21 (DE3), purified (Glutathione sepharose 4B); not shown: GST, N-terminal, kept
# EXPERIMENTAL DETAILS: AlphaScreen or HTRF + ITC; the text names HTRF or ITC for the values without telling which; GST-GRASP55 FL with JAM peptides; HTRF: biotinylated peptide competed with unlabeled peptide, 0.05 M HEPES, 0.15 M NaCl, 0.25% BSA pH 7.3, 18 h, 4°C; ITC: peptide in the syringe, protein in the cell, 100 mM NaPO4 pH 7.5, 25°C
# PARTICULARS: both partners purified
The response must be a number in µM with no trailing unit.

// solved cases for Kd follow
BINDER	EXPERIMENTAL RESULT
NYIRTSEEGDFRHKSSFVI (JAM-C, mouse, C-terminal 19-mer; the homologous non-biotinylated form of the printed biotinylated peptide; also called JAM-C peptide; source: synthetic peptide) [JAM-C_P19, peptide corresponding to the C-terminal 19-mer of mouse JAM-C (unlabeled)]	3.7
SKVTTMSENDFKHTKSFII (JAM-B, mouse, C-terminal 19-mer; the homologous non-biotinylated form of the printed biotinylated peptide; also called JAM-B peptide; source: synthetic peptide) [JAM-B_P19, peptide corresponding to the C-terminal 19-mer of mouse JAM-B (unlabeled)]	4.9

Would you kindly look at the next entry?
Ask: Item SQPSTRSEGEFKQTSSFLV (JAM-A, carboxy-terminal 19 amino acids; the homologous non-biotinylated form of the printed biotinylated peptide; source: synthetic peptide) [Unlabeled (non-biotinylated) JAM-A carboxy-terminal 19-mer peptide] has what recorded Kd?
Reply: 27
